Hello, the source for this data is PubChem BioAssay AID1159580, in case you need it.

# normalized growth values compiled below
Experiment: chemical genetic growth profiling, strain panel (AID 1159580);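 note: tested at 20 µM; growth read once vehicle control cultures reached saturation at 30 °C; 1 = growth at the plate median or of vehicle wells; lower values mean less growth of the strain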
Details: S. cerevisiae deletion strains, growth OD, locus YNL298W, strain CLA4, hits give low values
Among all 5,500 compounds or so, about 2,000 (36%) were called active. Another 18% or so got no clear call; they are omitted. The list shows a part of the results.
// print number alone

Recorded results for 2 molecules are shown here.
CCOC(=O)OC(C)OC(=O)C1N2C(=O)C(NC(=O)[C@H](N)c3ccccc3)C2SC1(C)C (some centres undefined)    0.982
COC1=C[C@@H]2[C@@H]3Cc4ccc(OC)c(O)c4[C@]2(CCN3C)CC1=O    0.96

Any idea what its normalized growth is? The molecule is N[C@H](C(=O)O)[C@@H]1CC(Cl)=NO1 0.319

Record: COc1ccc2c3c([nH]c2c1)C(C)=NCC3 0.971

###

Assay: chemical genetic growth profiling, strain panel (AID 1159580)
Details: S. cerevisiae deletion strains, growth OD, locus YDL192W, strain arf1
The whole screen tested about 5,500 compounds, of which about 2,000 (36%) were called active. Inconclusive results (about 18%) are left out. No stated cut-off is given here; in the data, active means normalized growth mostly below about 0.91 (no sharp cut-off); inconclusive means no clear call, values can overlap the other calls; inactive means mostly above about 0.92. Some of the results follow.
Respond using exactly one of the listed classes: t for active, f for inactive

Before answering, review these 4 worked examples.
CC(=O)O[C@H]1CC[C@@]2(C)C(CC[C@]3(C)C2C(=O)C=C2C4[C@@H](C)[C@H](C)CC[C@]4(C(=O)O)CC[C@]23C)C1(C)C (stereo not given in full)    f
Nc1c2ccccc2nc2ccccc12 (tested in a mixture with another compound)    t
CC(=O)O[C@H]1CC[C@@]2(C)C(CC[C@]3(C)C2CC=C2C4CC(C)(C)CC[C@]4(C)CC[C@]23C)C1(C)C (stereo not given in full)    f
CC(C)=CCCC1(C)C=Cc2c(O)c3c(c(CC=C(C)C)c2O1)OC12C(=CC4CC1C(C)(C)OC2(C/C=C(/C)C(=O)O)C4=O)C3=O (stereo not given)    t

Could you now look at the following molecule, please?
What classification did CC(=O)OC1CC[C@@]2(C)C(CC[C@]3(C)C2CCC2C4CC(C)(C)CCC4(C(=O)O)CC[C@]23C)C1(C)C (stereo not given in full) end up with in this test? f

###

Assay: chemical genetic growth profiling, strain panel (AID 1159580)
Settings: S. cerevisiae deletion strains, growth OD, locus YLR320W, strain mms22, hits give low values
Screen size: about 5,500 compounds; about 2,000 (36%) were called active. Not shown: some 18% with an inconclusive outcome. Some of the results follow.
Measured property: normalized growth
// print number alone

Recorded results for 3 compounds are shown here.
COc1ccc2c3c([nH]c2c1)C(C)=NCC3    0.988
Nc1c2c(nc3ccccc13)CCCC2    0.947
CC(C)CC(N(C)C)C1(c2ccc(Cl)cc2)CCC1 (centres undefined)    0.989

Consider the record given below.
Any idea what its normalized growth is? The compound is COc1cccc2c1C(=O)c1c(O)c3c(c(O)c1C2=O)C[C@@](O)(C(C)=O)C[C@@H]3O[C@H]1C[C@H](N)[C@H](O)[C@H](C)O1 0.727

###

# normalized growth values compiled below
Experiment: chemical genetic growth profiling, strain panel (AID 1159580)
Details: S. cerevisiae deletion strains, growth OD, locus YFR010W, strain ubp6, hits give low values
In all, about 5,500 compounds went through this assay and about 2,000 (36%) were called active. Inconclusive results (about 18%) are left out. Some of the results follow.
// print number alone

CCCCCCCCCCCC[C@H](C(=O)O)[C@@H](C)C(=O)O    1.02
O=C(O)CC(O)(CC(=O)O)C(=O)O    1.02

Consider the record given below.
Any idea what its normalized growth is? The compound is O=c1[nH]cc(F)c(=O)[nH]1 0.598

###

Assay: chemical genetic growth profiling, strain panel (AID 1159580)
Settings: S. cerevisiae deletion strains, growth OD, locus YPR106W, strain ISR1, hits give low values
In all, about 5,500 compounds went through this assay and about 2,000 (36%) were called active. Inconclusive results (about 18%) are left out. The list shows a part of the results.
Measured property: normalized growth
// print number alone

Recorded results for 5 compounds are shown here.
CSc1n[nH]c(-c2cc(C(F)(F)F)cc(C(F)(F)F)c2)n1    0.929
Brc1ccc2[nH]c3c(c2c1)CCC3    0.94
Cc1ccc(C)c(CSc2nc(C3CCCCC3)c(C#N)c(=O)[nH]2)c1    0.987
Clc1ccc2c(c1)c1ccccc1n2CN1CCOCC1    0.94
OC1CCN(c2cc(C(F)(F)F)nc3cc(Cl)cc(Cl)c23)CC1    0.991

Any idea what its normalized growth is? The compound is S=C(Nc1ccc(Cl)cc1)SCc1c(Cl)cccc1Cl 0.994

Record: O=C(N/N=C\c1cc(Br)ccc1O)c1ccccc1Oc1ccccc1 0.976

###

Test: chemical genetic growth profiling, strain panel (AID 1159580);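 note: tested at 20 µM; growth read once vehicle control cultures reached saturation at 30 °C; 1 = growth at the plate median or of vehicle wells; lower values mean less growth of the strain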
Settings: S. cerevisiae deletion strains, growth OD, locus YJL187C, strain SWE1, hits give low values
In all, about 5,500 compounds went through this assay and about 2,000 (36%) were called active. Another 18% or so got no clear call; they are omitted. Some of the results follow.
Measured property: normalized growth
// print number alone

CC(CC(=O)C(O)C(C)(C)O)C1C(=O)CC2(C)C3=CCC4C(C)(C)C(OC5OCC(O)C(O)C5O)CCC45CC35C(O)CC12C (stereo unspecified)    1.01
COc1ccc2c(c1)c(CC(=O)O)c(C)n2C(=O)c1ccc(Cl)cc1    0.991
COc1ccc2c3c([nH]c2c1)C(C)=NCC3    0.993
O=C1c2c(O)cccc2Cc2cccc(O)c21    1
CC(C)CCCC1(C)C=Cc2c(O)c3c(c(CCC(C)C)c2O1)OC12C(CC4CC1C(C)(C)OC2(CCC(C)C(=O)O)C4O)C3=O (stereo unspecified)    0.997

Any idea what its normalized growth is? The molecule is CCN1C[C@]2(OC(=O)c3ccccc3NC(C)=O)CCC(OC)[C@]34C1[C@H](CC23)[C@@]1(O)CC(OC)[C@H]2CC4C1(O)[C@H]2OC (stereo partly specified) 0.987

Record: CC(OCc1ccccc1)C(NC(=O)OC(C)(C)C)C(N)=O (stereo unspecified) 1

Record: N=C(N)SCCN 1

Record: CCC(C)C(NC)C(=O)O (stereo unspecified) 1.01

Record: COc1ccc2c(c1)c(CC(=O)OCC(=O)O)c(C)n2C(=O)c1ccc(Cl)cc1 1.01

###

Test: chemical genetic growth profiling, strain panel (AID 1159580);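 note: tested at 20 µM; growth read once vehicle control cultures reached saturation at 30 °C; 1 = growth at the plate median or of vehicle wells; lower values mean less growth of the strain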
Settings: S. cerevisiae deletion strains, growth OD, locus YCL061C, strain MRC1, hits give low values
Hit rate of the full screen: of about 5,500 compounds, about 2,000 (36%) were called active. Another 18% or so got no clear call; they are omitted. The list shows a part of the results.
# normalized growth values compiled below
// print number alone

Recorded results for 7 molecules are shown here.
S=C(NCc1cccnc1)Nc1ccccc1Cl    0.988
O=C(COc1ccc2c(c1)OCO2)N1CCN(c2ncc(C(F)(F)F)cc2Cl)CC1    0.983
N#C/C(NCc1cccs1)=C(\C#N)NCc1c(F)cccc1Cl    0.97
O=C1C(O)=C(O)C(=O)C(O)=C1O    1.01
C[C@@H]1CC[C@H]2[C@@H](C)C(O)O[C@@H]3O[C@@]4(C)CC[C@@H]1[C@]32OO4 (stereo partly drawn)    0.312
CNC(=O)O/N=C\C(C)(C)SC    1.01
C#C[C@]1(OC(C)=O)CCC2C3CCC4=C/C(=N\O)CCC4C3CC[C@@]21CC (stereo partly drawn)    0.94

Consider the record given below.
Any idea what its normalized growth is? The molecule is Cc1noc(C)c1C(=O)N1CCN(c2ncc(C(F)(F)F)cc2Cl)CC1 0.993

###

Assay: chemical genetic growth profiling, strain panel (AID 1159580);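 note: tested at 20 µM; growth read once vehicle control cultures reached saturation at 30 °C; 1 = growth at the plate median or of vehicle wells; lower values mean less growth of the strain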
Conditions: S. cerevisiae deletion strains, growth OD, locus YKL009W, strain mrt4
About 2,000 (36%) of roughly 5,500 compounds were called active. Another 18% or so got no clear call; they are omitted. Rule as the data show it: active = normalized growth mostly below about 0.91 (no sharp cut-off); inconclusive = no clear call, values can overlap the other calls; inactive = mostly above about 0.92. The list shows a part of the results.
Respond using exactly one of the listed classes: active, inactive

Cc1cn([C@H]2C[C@H](N=[N+]=[N-])[C@@H](CO)O2)c(=O)[nH]c1=O    inactive
Nc1ccc(S(=O)(=O)c2ccc(N)cc2)cc1    inactive
COc1ccc2c3c([nH]c2c1)C(C)=NCC3    inactive
CCCCCCCCCCCC[C@H](C(=O)O)[C@@H](C)C(=O)O    inactive
COc1cc(C(=O)O[C@H]2CC[C@@]3(C)[C@@H]4CC[C@H]5[C@]6(O)C[C@H](O)[C@@]7(O)[C@@H](CN8C[C@@H](C)CC[C@H]8[C@@]7(C)O)[C@]6(O)C[C@@]53O[C@]24O)cc(OC)c1OC    inactive

What classification did CNC(=O)O/N=C\C(C)(C)SC end up with in this test? inactive

Record: C/C=C1\[C@H]2C=C(C)C[C@]1(N)c1ccc(=O)[nH]c1C2 inactive

Record: Cc1cc(O)c2c(c1)Cc1cccc(O)c1C2=O inactive

Record: C[C@@H]1OC(O[C@H]2[C@H](OC(=O)[C@]34CCC(C)(C)CC3C3=CCC5[C@@]6(C)CC[C@H](OC7O[C@@H](C)[C@H](O[C@@H]8OC[C@@H](O)[C@H](O)[C@H]8O)[C@@H](O)[C@H]7O)C(C)(C)C6CC[C@@]5(C)[C@]3(C)CC4O)OC[C@H](O)[C@H]2O)[C@H](O)[C@H](O)[C@H]1O[C@@H]1O[C@H](CO)[C@@H](O)[C@H](O)[C@H]1O (stereo partly specified) active

Record: O=C1C(O)=C(O)C(=O)C(O)=C1O inactive

Record: Cc1ccnc(NS(=O)(=O)c2ccc(N)cc2)n1 inactive

Record: C[C@H]1[C@H](C)CC[C@]2(CO)CC[C@]3(C)C(=CCC4[C@@]5(C)CC[C@H](O)C(C)(C)C5CC[C@]43C)[C@H]12 (stereo partly specified) inactive

Record: COC(=O)Nc1nc2ccc(C(=O)c3ccccc3)cc2[nH]1 inactive

Record: CCC(C)C(=O)O[C@H]1[C@H](O)C2C(CN3CC(C)CCC3[C@@]2(C)O)C2C[C@]34O[C@]5(O)C(OC(=O)C(C)(O)CC)CC[C@@]3(C)C5C(OC(C)=O)[C@@H](OC(C)=O)C4[C@@]21O (stereo partly specified) inactive

Record: Clc1ccccc1C(c1ccccc1)(c1ccccc1)n1ccnc1 active

Record: CNCc1ccccc1 inactive

Record: O=c1[nH]cc(F)c(=O)[nH]1 active

Record: C/C=C(/C)C(=O)O[C@H]1CC[C@@]2(C)[C@@H]3CC[C@H]4[C@]5(O)C[C@H](O)[C@@]6(O)[C@@H](CN7C[C@@H](C)CC[C@H]7[C@@]6(C)O)[C@]5(O)C[C@@]42O[C@]13O inactive

Record: CC(C)(C#N)O[C@@H]1O[C@H](CO)[C@@H](O)[C@H](O)[C@H]1O inactive

Record: Nc1c2c(nc3ccccc13)CCCC2O (stereo unspecified) inactive

Record: O=C(O)/C=C1\CCCc2ccccc2C1O (stereo unspecified) inactive
